System: RPMI-8226 leukemia
assayProcedure: NCI tumour cell line growth inhibition, 48 h; in the data active means GI50 below about 0.43 µM; inactive means the rest
Pick one and only one: 1 for active, -1 for inactive

Illustrative cases are given below, each with its answer.
molecule	classAssignment
Cc1c(C(=O)O)n(-c2ccc(Cl)cc2)c2ncnc(N)c12	-1
CCOC(=O)c1cc2c(c3ccsc13)C1(C)CCC3c4ccc(OC)cc4CCC3C1C2 (configuration not stated)	-1

Ask: Tell me the assay call for `COc1cccc2c1-c1ccccc1C2=O` please.
Result: -1

Ask: Tell me the assay call for `C1CN1c1nc(N2CC2)nc(N2CC2)n1` please.
Result: -1

Ask: Tell me the assay call for `CN1CCN(CCn2c3c4ccccc4ccc3c3oc(=O)c4ccccc4c32)CC1` please.
Result: -1

====

Tested on: DU-145 prostate
assayProcedure: NCI tumour cell line growth inhibition, 48 h
endpoint: GI50

Worked examples follow.
compound	valueReported
O=C(C[Si](CC(=O)c1cccc(C(F)(F)F)c1)CC(=O)c1cccc(C(F)(F)F)c1)c1cccc(C(F)(F)F)c1	4.43 µM
CO[C@H](C(=O)[C@@H](O)[C@@H](C)O)[C@@H]1Cc2cc3cc(O[C@H]4C[C@@H](O[C@H]5C[C@@H](O)[C@H](O)C(C)O5)[C@H](O)C(C)(O)O4)cc(O)c3c(O)c2C(=O)[C@H]1O[C@H]1C[C@@H](O[C@H]2C[C@@H](O[C@H]3C[C@@H](OC)[C@H](O)C(C)O3)[C@@H](O)C(C)O2)[C@H](O)C(C)O1 (stereo partly drawn)	0.976 µM
Clc1ccc(/C=C2\CCCC3C2=Nc2ccccc2NC3c2ccc(Cl)cc2)cc1 (stereo not drawn)	4.39 µM
C[C@@H](O)[C@H]1C(=O)N2C(C(=O)O)=C(SCCN=CN)C[C@H]12	2.56 µM
C[C@]12CCC3c4ccc(O)cc4CCC3C1CC[C@@]2(O)C#Cc1ccc(C#C/C=C\C#Cc2ccccc2N)cc1 (stereo partly drawn)	23.9 µM

Ask: If you can, please state the reported GI50 value of `O=C(O)CCCn1c(SCc2c(Cl)cccc2Cl)nc2ccsc2c1=O` .
Result: 0.479 µM

Ask: If you can, please state the reported GI50 value of `FC(F)(F)c1ccc(-c2cncn2-c2ccccc2)cc1` .
Result: 6.28 µM

Ask: If you can, please state the reported GI50 value of COC(=O)C(N)CSC(c1ccccc1)(c1ccccc1)c1ccccc1 (stereo not drawn) .
Result: 3.26 µM

====

Some compounds, each annotated with its measured TGI.
Tested on: KM12 colon
assayProcedure: NCI tumour cell line growth inhibition, 48 h

compound	valueReported
CC(=NC1CCCCC1)c1ccccc1O	> 100 µM

Ask: If you can, please state the reported TGI value of `Oc1ccc(N=Cc2ccc(C=Nc3ccc(O)cc3)cc2)cc1` .
Result: 33.3 µM

Ask: If you can, please state the reported TGI value of `Cn1ccnc1Sc1ccc(/C=N/NC(=O)c2ccccc2[N+](=O)[O-])cc1[N+](=O)[O-]` .
Result: > 100 µM

Ask: If you can, please state the reported TGI value of `Nc1nc2c(nc(N)n2Cc2ccccc2)c(=O)[nH]1` .
Result: > 100 µM

Ask: If you can, please state the reported TGI value of `COc1ccc2cc3[n+](cc2c1O)CCc1cc2c(cc1-3)OCO2` .
Result: > 100 µM

Ask: If you can, please state the reported TGI value of COc1cc(C2c3[nH]c4ccccc4c3[C@@H](Nc3ccc(F)cc3)[C@H]3COC(=O)N23)cc(OC)c1O (stereo partly specified) .
Result: 6.5 µM

====

Some compounds, each annotated with its measured TGI.
System: RPMI-8226 leukemia
assayProcedure: NCI tumour cell line growth inhibition, 48 h

Ask: Quick check: TGI on RPMI-8226 leukemia, item `CC(C)c1cc(C(F)(F)F)nc(NNc2nc(C(C)C)cc(C(F)(F)F)n2)n1` ?
Result: > 100 µM

Ask: Quick check: TGI on RPMI-8226 leukemia, item `COc1ccc(CC#N)c(OCc2ccccc2)c1` ?
Result: > 100 µM

Ask: Quick check: TGI on RPMI-8226 leukemia, item `FC(F)(F)c1ccc(-c2cncn2-c2ccccc2)cc1` ?
Result: 27.2 µM

Ask: Quick check: TGI on RPMI-8226 leukemia, item `O=C(O)c1cc(-c2ccc3c(O)ccc(O)c3c2)ccc1O` ?
Result: > 100 µM

====

Test system: U251 CNS
Pick one and only one: active, inactive

molecule	experimentalSystem	classAssignment
Cc1nc2cc(-n3c(-c4ccc(F)cc4)nc4ccccc4c3=O)ccc2n1Cc1ccccc1	U251 CNS	inactive
C[C@]12CCC3c4ccc(O)cc4CCC3C1CC[C@@]2(O)C#Cc1ccc(C#C/C=C\C#Cc2ccccc2N)cc1 (stereo partly drawn)	U251 CNS	inactive
Cc1c2cnccc2c(C)c2c1c1cc(CO)ccc1n2C	U251 CNS	active
COc1cccc(/C=N/Nc2ncnc3c2cnn3-c2cccc(OC)c2)c1	U251 CNS	inactive
Clc1ccc(/C=C2\CCCC3C2=Nc2ccccc2NC3c2ccc(Cl)cc2)cc1 (stereo not drawn)	U251 CNS	inactive

Ask: Tell me the assay call for `C1CN1c1nc(N2CC2)nc(N2CC2)n1` please.
Result: inactive

Ask: Tell me the assay call for `CC(C)[C@]12O[C@H]1[C@@H]1O[C@]13[C@]1(O[C@H]1C[C@H]1C4=C(CC[C@@]13C)C(=O)OC4)[C@@H]2OC(=O)CN(C)C` please.
Result: active

Ask: Tell me the assay call for `Cn1cc(C2=C(c3cn(CCCO)c4ccccc34)C(=O)NC2=O)c2ccccc21` please.
Result: inactive

Ask: Tell me the assay call for `O=C(O)CCCn1c(SCc2c(Cl)cccc2Cl)nc2ccsc2c1=O` please.
Result: inactive

Ask: Tell me the assay call for CC1CN1C1=CC(=O)c2c(c(CO)cn2C)C1=O (stereo not drawn) please.
Result: active

Ask: Tell me the assay call for `COc1ccc(/C=C/C(=O)c2cccc(B(O)O)c2)cc1O` please.
Result: inactive

Ask: Tell me the assay call for Nc1nc(N)c2cc(CNc3ccc(C(=O)NC(CC(=O)O)C(=O)O)cc3)ccc2n1 (stereo not drawn) please.
Result: active

Ask: Tell me the assay call for `CC1(C)C(=O)/C(=C\c2ccccn2)C[C@]2(C)[C@H]3CC[C@@H]4[C@@H](C(=O)/C=C/c5ccccn5)CC[C@@]4(C)[C@]3(C)CC[C@@H]12` please.
Result: inactive

====

Tested on: SNB-19 CNS
assayProcedure: NCI tumour cell line growth inhibition, 48 h
Some molecules, each annotated with its measured TGI.

Worked examples follow.
molecule	TGI
COc1cc(/C=N/c2nncs2)ccc1O	> 100 µM
C=CCC12CC(=O)CCC1CC(=O)C2 (stereo not given)	> 100 µM
COc1ccc(/C(=N\N=C(N)N)C(c2ccc(OC)cc2)C2OC(=O)c3ccccc32)cc1 (stereo not given)	> 100 µM
CCCc1cc(=O)oc2c3c(c4c(c12)OC(C)(C)CC4)O[C@H](C)[C@@H](C)[C@H]3O	32.2 µM
Cc1ccc(S(=O)(=O)NC(=O)Nc2ccc(C(=O)O)c(O)c2)cc1	> 100 µM
Cn1c(=O)cc(NNc2ccccc2)[nH]c1=O	> 100 µM

Ask: If you can, please state the reported TGI value of `COC(=O)C1=C(O)[C@H](C(=O)OC)C2(O)[C@@H](C(=O)OC)[C@H]1C[C@@H](c1ccc(OC(=O)n3ccnc3)cc1)[C@@H]2C(=O)OC` .
Result: > 50 µM

Ask: If you can, please state the reported TGI value of COc1ccc(C2C=C(c3ccccc3)Nc3nnnn32)cc1 (stereo not given) .
Result: > 100 µM

Ask: If you can, please state the reported TGI value of `CN(C)c1ccc(/C=C/c2ccc3ccccc3[n+]2C)cc1` .
Result: > 100 µM

Ask: If you can, please state the reported TGI value of CC1(C)C(OC(=O)c2ccccc2)C[C@]23CCC[C@](C)(C[C@@H](O)C12)C3 (stereo not given in full) .
Result: 47.8 µM

====

System: MALME-3M melanoma
assayProcedure: NCI tumour cell line growth inhibition, 48 h
endpoint: GI50

Worked examples follow.
molecule	GI50
COC(=O)C(N)CSC(c1ccccc1)(c1ccccc1)c1ccccc1 (stereo unspecified)	4.7 µM
COc1ccc(S(=O)(=O)Nc2cc(/C=C\c3cc(OC)c(OC)c(OC)c3)cc(OC)c2OC)cc1	12.6 µM
CC(=O)[CH-]C(C)=O.CC(=O)[CH-]C(C)=O.[CH2-]CCCCCCC.[CH2-]CCCCCCC.[Sn+4]	17.6 µM
O=C(Nc1cccc(-c2cccc(F)c2)c1)C1CCN(Cc2cccc3cccnc23)CC1	1.65 µM
O=C(C[Si](CC(=O)c1cccc(C(F)(F)F)c1)CC(=O)c1cccc(C(F)(F)F)c1)c1cccc(C(F)(F)F)c1	4.03 µM

The record that follows has no GI50 shown yet.
Ask: If you can, please state the reported GI50 value of `O=C(N/N=C\c1c(O)ccc2ccccc12)C1CC1` .
Result: 7.76 µM

All figures here come from PubChem BioAssay (NCI).
